# System: HL-60 leukemia cancer cell line
# assay_info: Cytotoxic activity, MTT assay, HL-60
# Assay type: cell-based, human
# settings: Homo sapiens, Table 2, HL-60 cells, 48 h, 50% growth-inhibitory effect, read-out: IC50
pIC50 values by entry
Quick note: pIC50 means taking -log10 of the concentration in moles per liter.

[[record]]
compound = "CCN(CC)Cc1ccc2[nH]c(-c3ccccc3F)cc(=O)c2c1 [Compound I-9-e]"
readout_number = 5.24


Continue with the compound presented below.
Query block: Name the recorded pIC50 for CCN(CC)Cc1ccc2[nH]c(-c3ccccc3)cc(=O)c2c1 [Compound I-8-e] .
Result block: 4.82

====

# Test system: NCI-H226 non-small cell lung cancer cell line
# assay_info: Cytotoxic activity, MTT assay, NCI-H226
# Format: cell-based, human
# settings: 48 h, 50% growth-inhibitory effect
recorded_endpoint: IC50 (µM)
Numbers only; they are read as µM.

Query block: Which IC50 is reported for this compound? O=c1cc(-c2ccc[se]2)[nH]c2cc3c(cc12)OCO3
Result block: 4.9
